# targetOfAssay: human IRAK4 kinase domain (aa 154-460) (Homo sapiens (Human), UniProt Q9NWZ3)
# Sequence (Q9NWZ3 154-460): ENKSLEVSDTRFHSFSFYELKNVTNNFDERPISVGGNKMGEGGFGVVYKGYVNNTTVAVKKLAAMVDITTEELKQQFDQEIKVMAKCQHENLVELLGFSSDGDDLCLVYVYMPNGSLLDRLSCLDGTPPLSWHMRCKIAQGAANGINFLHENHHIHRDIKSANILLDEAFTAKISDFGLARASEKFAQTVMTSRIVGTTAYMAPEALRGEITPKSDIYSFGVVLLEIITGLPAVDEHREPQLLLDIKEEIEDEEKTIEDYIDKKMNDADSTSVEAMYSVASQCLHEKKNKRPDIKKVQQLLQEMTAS
# experimentSummary: IRAK4 Enzymatic DELFIA Assay, Protocol B
# Assay type: biochemical
# cond: human IRAK4 kinase domain (aa 154-460), 0.6 mM ATP (KM); read-out: IRAK4 DELFIA Protocol B IC50
pIC50: −log10 of the molar value.
pIC50 below 7 gives class 0; pIC50 at or above it gives class 1.

molecule: CC(C)Oc1cc2c(OC[C@H]3CCN(C(=O)CC#N)C3)ccnc2cc1C(N)=O [Example 22]
targetOfAssay: human IRAK4 kinase domain (aa 154-460) (Homo sapiens (Human), UniProt Q9NWZ3)
group: class 1
//
molecule: CC(C)Oc1cc2c(OC[C@@H]3CCCN(C(=O)CC#N)C3)ccnc2cc1C(N)=O [Example 97]
targetOfAssay: human IRAK4 kinase domain (aa 154-460) (Homo sapiens (Human), UniProt Q9NWZ3)
group: class 0
//
molecule: CC(C)Oc1cc2c(OCC3CCCNC3)ccnc2cc1C(N)=O (centres unmarked) [Example 59]
targetOfAssay: human IRAK4 kinase domain (aa 154-460) (Homo sapiens (Human), UniProt Q9NWZ3)
group: class 0

Values were extracted from patent US10329302B2.
